Reference source: paper PMC12155096

- experimentalSystem: human CYP2D6 (Homo sapiens, UniProt P10635)
- Sequence (P10635 whole entry): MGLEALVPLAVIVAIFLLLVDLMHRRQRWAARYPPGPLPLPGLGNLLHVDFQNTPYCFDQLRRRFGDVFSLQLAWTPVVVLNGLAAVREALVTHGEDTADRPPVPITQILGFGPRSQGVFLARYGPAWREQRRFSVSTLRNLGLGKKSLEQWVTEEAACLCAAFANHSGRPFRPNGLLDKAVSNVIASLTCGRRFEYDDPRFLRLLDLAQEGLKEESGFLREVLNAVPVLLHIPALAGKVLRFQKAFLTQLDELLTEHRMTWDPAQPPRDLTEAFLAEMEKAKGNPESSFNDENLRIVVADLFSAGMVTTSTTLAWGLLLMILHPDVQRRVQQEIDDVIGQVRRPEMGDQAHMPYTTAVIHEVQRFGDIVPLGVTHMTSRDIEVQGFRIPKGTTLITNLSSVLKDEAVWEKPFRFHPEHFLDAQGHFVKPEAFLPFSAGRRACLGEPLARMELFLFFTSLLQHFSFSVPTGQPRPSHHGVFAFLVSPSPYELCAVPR
- setupConditions: human, 1 h
Consider the following compounds; for each one, report its CYP2D6 Efficacy (in parenthesis).

Clc1cccc(C(c2ccc3[nH]cnc3c2)n2ccnc2)c1 (stereo not shown): 31.04 ± 3.57 (-56 ± 13) %

Lab note: each compound below needs its CYP2D6 Efficacy (in parenthesis) filled in.
1. COC(=O)c1c(Cl)c(Cl)c(C(=O)OC)c(Cl)c1Cl
2. CCN(CC)Cc1nccn1-c1ccc([N+](=O)[O-])cc1C(=O)c1ccccc1Cl
3. N#C/C(=C1/SCC(c2ccccc2Cl)S1)n1ccnc1 (stereo not shown)

**Result**
44.96 ± 16.37 (-48 ± 8) %
2.98 ± 0.19 (-103 ± 6) %
2.58 ± 0.46 (-102 ± 1) %

* * *

What AC50 was measured for each of the following?
- experimentalSystem: human CYP2C9 (Homo sapiens)
- Sequence (P11712 whole entry): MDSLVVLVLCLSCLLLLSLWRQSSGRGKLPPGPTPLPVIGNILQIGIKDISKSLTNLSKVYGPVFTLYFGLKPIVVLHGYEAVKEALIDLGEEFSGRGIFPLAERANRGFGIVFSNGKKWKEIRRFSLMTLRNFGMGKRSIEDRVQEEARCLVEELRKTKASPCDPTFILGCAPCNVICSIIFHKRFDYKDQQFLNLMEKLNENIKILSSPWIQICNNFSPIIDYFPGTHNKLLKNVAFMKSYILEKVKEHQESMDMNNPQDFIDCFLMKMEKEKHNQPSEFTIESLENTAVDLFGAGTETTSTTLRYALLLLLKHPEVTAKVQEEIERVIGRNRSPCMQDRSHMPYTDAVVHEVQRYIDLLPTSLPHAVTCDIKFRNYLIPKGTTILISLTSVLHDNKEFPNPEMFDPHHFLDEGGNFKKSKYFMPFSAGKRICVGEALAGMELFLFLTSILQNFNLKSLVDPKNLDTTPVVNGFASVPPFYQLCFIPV
- protocolSummary: biochemical
- setupConditions: CYP2C9 AC50 (half-maximal activity concentration)
Counter-ions that a name gives are not always drawn.

Reference set (3 entries):
CCC(=O)O[C@H]1CC[C@H]2[C@@H]3CCC4=CC(=O)CC[C@]4(C)[C@H]3CC[C@]12C [Testosterone propionate]: 30.9 µM
CCOP(=O)(OCC)OC(=CCl)c1ccc(Cl)cc1Cl [Chlorfenvinphos]: 31.9 µM
CC(C)OC(=O)COc1ccc(Cl)cc1Cl [2,4-D isopropyl ester]: 35 µM

Record AC50 per entry; entries follow.
1. CCCCCCCCCC(C)C=O (stereo not drawn) [2-Methylundecanal]
2. C[Si](Cl)(c1ccccc1)c1ccccc1 [Chloro(methyl)diphenylsilane]
3. CCC(C)c1ccccc1O (stereo not drawn) [2-(Butan-2-yl)phenol]
4. CCOc1ccc(C(C)(C)COCc2cccc(Oc3ccccc3)c2)cc1 [Etofenprox]
5. O=C1c2ccccc2C(=O)C1C(=O)C(c1ccccc1)c1ccc(Cl)cc1 (stereo not drawn) [Chlorophacinone]
6. CCOC(=O)NC(C)(C)Cc1ccc(Cl)cc1 [Cloforex]
7. COC(=O)C(C)N(C(=O)Cc1ccccc1)c1c(C)cccc1C (stereo not drawn) [Benalaxyl]
8. N=C(N)NC(=O)Cc1c(Cl)cccc1Cl [Guanfacine hydrochloride]

**Result**
1. 65.1 µM
2. 3.53 µM
3. 53.2 µM
4. 7.13 µM
5. 0.76 µM
6. 15.6 µM
7. 22.6 µM
8. 27.3 µM

I'm hoping you can list AC50 for every compound here, please.
1. CCCCCC1C(=O)CCC1CC(=O)OC (stereo not drawn) [Methyl dihydrojasmonate]
2. C[C@]12CCC(=O)C=C1CC[C@@H]1[C@@H]2CC[C@@]2(C)[C@H]1CC[C@]2(C)O [17-Methyltestosterone]
3. c1cnc2c(c1)ccc1cccnc12 [1,10-Phenanthroline]
4. C[C@]12CC[C@@H]3c4ccc(O)cc4CC[C@H]3[C@@H]1CC[C@@H]2O [17beta-Estradiol]
5. CC(=O)OCC(=O)[C@@]1(OC(C)=O)[C@@H](C)C[C@H]2[C@@H]3C[C@H](F)C4=CC(=O)C=C[C@]4(C)[C@@]3(F)[C@@H](O)C[C@@]21C [Diflorasone diacetate]
6. COc1ccc(C(=O)c2ccc(C)cc2)c(O)c1 [Mexenone]
7. Clc1ccc(C(c2ccccc2Cl)C(Cl)Cl)cc1 (stereo not drawn) [Mitotane]

**Result**
["28.4 µM", "32.7 µM", "4.65 µM", "5.72 µM", "19 µM", "14.7 µM", "10.6 µM"]

Take each entry in turn and give its AC50.
1. Cc1cccc(Nc2ccccc2C(=O)O)c1C [Mefenamic acid]
2. CSc1nc(NC(C)C)nc(NC(C)C)n1 [Prometryn]
3. CCOCCOC(=O)C=Cc1ccc(OC)cc1 [Cinoxate]
4. COC(=O)Nc1nc2ccc(C(=O)c3ccccc3)cc2[nH]1 [Mebendazole]
5. CCCCC(CC)COP(=O)(O)OCC(CC)CCCC (stereo not drawn) [Bis(2-ethylhexyl) phosphate]
6. O=C(C(=O)c1ccccc1)c1ccccc1 [1,2-Diphenylethanedione]
7. Oc1c(Cl)ccc(Cl)c1Cl [2,3,6-Trichlorophenol]

**Result**
33 µM
58.2 µM
13.9 µM
3.89 µM
16.5 µM
1.13 µM
35.7 µM

Hi, could you look up AC50 for each item in my list?
1. Cc1ccccc1OP(=O)(Oc1ccccc1C)Oc1ccccc1C [Tri-o-cresyl phosphate]
2. ClC(Cl)=C(c1ccc(Cl)cc1)c1ccccc1Cl [o,p'-DDE]
3. Brc1ccc(Oc2ccc(Br)cc2)cc1 [4,4'-Dibromodiphenyl ether]

**Result**
1. 4.9 µM
2. 21 µM
3. 24.6 µM

Below are some compounds; for each one, tell me its AC50.
1. CCCCCCCCCC(=O)O [Decanoic acid]
2. N=C(N)N/N=C/c1c(Cl)cccc1Cl [Guanabenz]
3. O=C(O)c1ccccc1C(c1ccc(O)cc1)c1ccc(O)cc1 [Phenolphthalin]

**Result**
1. 69.7 µM
2. 37.7 µM
3. 56.6 µM

// input: 8 compounds below; output: AC50 for each
1. O=CC(Br)(Br)Br [Tribromoacetaldehyde]
2. Oc1c(I)cc(I)cc1I [2,4,6-Triiodophenol]
3. CCC(=O)c1ccc(O)cc1 [Paroxypropione]
4. CCCCOc1ccc(C(=O)CCN2CCCCC2)cc1 [Dyclonine hydrochloride]
5. O=C(c1ccccc1)C1CCCCC1 [Cyclohexylphenylketone]
6. CC(=O)O[C@]1(C(C)=O)CC[C@H]2[C@@H]3C=C(Cl)C4=CC(=O)CC[C@]4(C)[C@H]3CC[C@@]21C [Chlormadinone acetate]
7. CCCSP(=O)(OCC)SCCC [Ethoprop]
8. COc1ccc(S(=O)(=O)Nc2nnc(CC(C)C)s2)cc1 [Glysobuzole]

**Result**
18.4 µM
41.2 µM
15.6 µM
14.5 µM
47.5 µM
14.9 µM
37 µM
12.5 µM
